Collected Growth inhibition rate (%) Rice values appear next to each entry.
- Test system: rice (Oryza sativa L.)
- ASSAY DETAILS: Test Example 1: foliar treatment, upland pot test, rice
- Assay type: in vivo
- CONDITION LABEL: 31 g/ha active ingredient, observed 17th to 25th day after application
Field format: number, assumed %, no unit text.

Some solved cases for reference:
COMPOUND	TEST TARGET	Growth inhibition rate (%) Rice
COCC(C)Oc1c(S(C)(=O)=O)ccc(C(=O)c2cnn(C)c2O)c1C (stereo not drawn)	rice (Oryza sativa L.)	40
COC(C)COc1c(S(C)(=O)=O)ccc(C(=O)c2cnn(C)c2O)c1C (stereo not drawn)	rice (Oryza sativa L.)	80
COC(=O)Cc1c(S(C)(=O)=O)ccc(C(=O)c2cnn(C)c2O)c1C	rice (Oryza sativa L.)	70
COCCOc1c(S(C)(=O)=O)ccc(C(=O)c2cnn(C(C)C)c2O)c1C	rice (Oryza sativa L.)	95

Asked: # return recorded Growth inhibition rate (%) Rice for entry Cc1c(C(=O)c2cnn(C)c2O)ccc(S(C)(=O)=O)c1COC(C)C
Given back: 90

Asked: # return recorded Growth inhibition rate (%) Rice for entry Cc1c(C(=O)c2cnn(C)c2O)ccc(S(C)(=O)=O)c1OC(C)C
Given back: 60

Asked: # return recorded Growth inhibition rate (%) Rice for entry CCc1nn(C)c(O)c1C(=O)c1ccc(S(C)(=O)=O)c(OCCOC)c1C
Given back: 80

Asked: # return recorded Growth inhibition rate (%) Rice for entry Cc1c(C(=O)c2cnn(C)c2O)ccc(S(C)(=O)=O)c1COCC(F)(F)F
Given back: 50

Asked: # return recorded Growth inhibition rate (%) Rice for entry CCn1ncc(C(=O)c2ccc(S(C)(=O)=O)c(OCCOC)c2C)c1O
Given back: 70
